Cited source: paper PMC7862291

STUDY SYSTEM: Rat KMO (Rattus norvegicus)
Construct: The GST-tagged full-length KMO (1-478) baculovirus vector contained a thrombin cleavage site; GST (thrombin cleavage site between GST and KMO) (N, cleaved yes)
PROTOCOL: Rat KMO enzyme (cell-free) assay, NADPH consumption by absorbance
MEASUREMENT CONTEXT: cell-free enzyme assay, high kynurenine
Please respond with reported IC50 for every item in the list.
One number for each entry, in nM.

# COMPOUND SMILES, U, IC50
records = [
    ("Cc1cnn(-c2ccc(OCc3ccccc3)c(C(=O)O)c2)c1-c1ccc(Cl)c(F)c1", "nM", 9),
    ("Cc1cnn(-c2cccc(C(=O)O)c2)c1-c1ccccc1", "nM", 570),
    ("COc1ccc2c(c1)CN(c1nc(C(=O)N(C)c3cc(Cl)c(F)cc3C(=O)O)c(Cl)s1)C2", "nM", 17),
]

Now for a further compound.
Sample Cc1cnn(-c2cccc(C(=O)O)c2)c1-c1ccc(Cl)c(F)c1 — what was its IC50?
150

* * *

STUDY SYSTEM: HEK293 cells stably expressing human KMO (Homo sapiens, UniProt O15229)
Construct: expressed in transfected cells
Sequence (O15229 whole entry): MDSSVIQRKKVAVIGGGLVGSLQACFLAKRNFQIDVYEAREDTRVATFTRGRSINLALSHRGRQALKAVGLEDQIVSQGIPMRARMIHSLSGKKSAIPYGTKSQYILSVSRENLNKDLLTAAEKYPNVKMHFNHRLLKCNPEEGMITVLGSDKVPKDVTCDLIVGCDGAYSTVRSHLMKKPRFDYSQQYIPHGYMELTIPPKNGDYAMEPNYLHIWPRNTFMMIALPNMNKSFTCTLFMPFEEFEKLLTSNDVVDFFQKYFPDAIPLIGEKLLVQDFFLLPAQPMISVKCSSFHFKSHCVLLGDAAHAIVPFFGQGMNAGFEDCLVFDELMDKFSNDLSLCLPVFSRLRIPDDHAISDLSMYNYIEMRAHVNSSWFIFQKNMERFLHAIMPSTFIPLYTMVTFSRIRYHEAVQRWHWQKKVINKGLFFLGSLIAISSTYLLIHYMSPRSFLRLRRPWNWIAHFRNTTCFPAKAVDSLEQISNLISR
PROTOCOL: Cell-based human KMO inhibition assay (LC/MS of 3-hydroxykynurenine)
MEASUREMENT CONTEXT: 100 μM kynurenine, HEK293, LC/MS; species not given; read-out: cellular IC50 (this study)
EXPERIMENTAL ENDPOINT: pIC50
Answers are plain numbers, as −log10 of the molar value.

Sample COc1ccc(S(=O)(=O)Nc2nc(-c3cccc([N+](=O)[O-])c3)cs2)cc1OC [Ro 61-8048, reference compound] — what was its pIC50?
5.92

* * *

STUDY SYSTEM: hKMO (Homo sapiens, UniProt O15229)
Construct: purchased Origene
Sequence (O15229 whole entry): as above
PROTOCOL: Human KMO enzyme (cell-free) assay, NADPH consumption by absorbance
Format: biochemical
MEASUREMENT CONTEXT: 1200 μM kynurenine, recombinant protein, absorbance; species not given; read-out: IC50 (cell-free assay, this study)
EXPERIMENTAL ENDPOINT: pIC50
One number for each entry, as −log10 of the molar value.

Field: pIC50 (hKMO (Homo sapiens, UniProt O15229)). Entry: COc1ccc(S(=O)(=O)Nc2nc(-c3cccc([N+](=O)[O-])c3)cs2)cc1OC [Ro 61-8048, reference compound]
5.85

* * *

STUDY SYSTEM: Rat KMO (Rattus norvegicus)
Construct: The GST-tagged full-length KMO (1-478) baculovirus vector contained a thrombin cleavage site; GST (thrombin cleavage site between GST and KMO) (N, cleaved yes); made in house; host or cells: Spodoptera frugiperda (Sf9), baculovirus
PROTOCOL: Rat KMO enzyme (cell-free) assay, NADPH consumption by absorbance
Type: biochemical
MEASUREMENT CONTEXT: conc 0.3 μM, duplicates; read-out: inhibition rate, Rat-KMO cell-free assay (Figure 1B source data)
Please respond with reported inhibition at 0.3 µM for every item in the list.
Numbers only, in %.

Here is how some compounds turned out for inhibition at 0.3 µM.
# COMPOUND SMILES, STUDY SYSTEM, EXPERIMENTAL ENDPOINT, U, VAL
data = [
    ("COc1ccc2c(c1)CN(c1nc(C(=O)N(C)c3cc(Cl)c(F)cc3C(=O)O)c(Cl)s1)C2", "Rat KMO (Rattus norvegicus)", "inhibition at 0.3 µM", "%", 101),
    ("Cc1cnn(-c2cccc(C(=O)O)c2)c1-c1ccc(Cl)c(F)c1", "Rat KMO (Rattus norvegicus)", "inhibition at 0.3 µM", "%", 62.8),
    ("Cc1cnn(-c2ccc(OCc3ccccc3)c(C(=O)O)c2)c1-c1ccc(Cl)c(F)c1", "Rat KMO (Rattus norvegicus)", "inhibition at 0.3 µM", "%", 92.2),
]

Now for a further compound.
Sample Cc1cnn(-c2cccc(C(=O)O)c2)c1-c1ccccc1 — what was its inhibition at 0.3 µM?
39.2

* * *

STUDY SYSTEM: Rat KMO (Rattus norvegicus, UniProt O88867)
Construct: The GST-tagged full-length KMO (1-478) baculovirus vector contained a thrombin cleavage site; GST (thrombin cleavage site between GST and KMO) (N, cleaved yes); made in house; host or cells: Spodoptera frugiperda (Sf9), baculovirus
Sequence (O88867 whole entry): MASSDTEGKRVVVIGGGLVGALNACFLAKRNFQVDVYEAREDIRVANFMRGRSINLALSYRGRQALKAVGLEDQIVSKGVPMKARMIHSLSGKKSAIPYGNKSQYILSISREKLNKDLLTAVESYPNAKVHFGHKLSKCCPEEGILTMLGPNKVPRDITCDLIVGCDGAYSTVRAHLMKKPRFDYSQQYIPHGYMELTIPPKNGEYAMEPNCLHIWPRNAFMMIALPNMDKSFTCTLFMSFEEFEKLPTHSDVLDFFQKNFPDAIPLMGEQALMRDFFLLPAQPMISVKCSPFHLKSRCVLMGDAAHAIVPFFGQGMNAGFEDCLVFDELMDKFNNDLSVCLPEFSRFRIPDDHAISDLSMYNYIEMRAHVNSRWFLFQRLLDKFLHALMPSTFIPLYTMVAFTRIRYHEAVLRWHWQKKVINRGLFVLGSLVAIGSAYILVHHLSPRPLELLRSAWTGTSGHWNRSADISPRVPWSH
PROTOCOL: Rat KMO enzyme (cell-free) assay, NADPH consumption by absorbance
Type: biochemical
MEASUREMENT CONTEXT: conc 1 μM, duplicates
Please respond with reported inhibition rate, Rat-KMO cell-free assay (Figure 1B source data) for every item in the list.
One number for each entry, in %.

Here is how some molecules turned out for inhibition rate, Rat-KMO cell-free assay (Figure 1B source data).
# COMPOUND SMILES, U, VAL
measured = [
    ("Cc1cnn(-c2cccc(C(=O)O)c2)c1-c1ccc(Cl)c(F)c1", "%", 81.108),
    ("Cc1cnn(-c2cccc(C(=O)O)c2)c1-c1ccccc1", "%", 64.963),
    ("COc1ccc2c(c1)CN(c1nc(C(=O)N(C)c3cc(Cl)c(F)cc3C(=O)O)c(Cl)s1)C2", "%", 93.954),
]

Now for a further molecule.
Sample Cc1cnn(-c2ccc(OCc3ccccc3)c(C(=O)O)c2)c1-c1ccc(Cl)c(F)c1 — what was its inhibition rate, Rat-KMO cell-free assay (Figure 1B source data)?
84.342

* * *

Please respond with reported inhibition rate, Hs-KMO cell-free assay (Figure 1A source data) for every item in the list.
STUDY SYSTEM: hKMO (Homo sapiens)
Construct: purchased Origene
PROTOCOL: Human KMO enzyme (cell-free) assay, NADPH consumption by absorbance
Format: biochemical
MEASUREMENT CONTEXT: conc 0.1 μM, duplicates
Answers are plain numbers, in %.

# COMPOUND, VAL
measured = [
    ("COc1ccc2c(c1)CN(c1nc(C(=O)N(C)c3cc(Cl)c(F)cc3C(=O)O)c(Cl)s1)C2 [Compound 4]", 87.583),
]

Provide the reported inhibition rate, Hs-KMO cell-free assay (Figure 1A source data) of each entry below, same order.
1. Cc1cnn(-c2cccc(C(=O)O)c2)c1-c1ccccc1 [Compound 1]
2. Cc1cnn(-c2ccc(OCc3ccccc3)c(C(=O)O)c2)c1-c1ccc(Cl)c(F)c1 [Compound 3]

1: 37.639; 2: 97.991

Sample Cc1cnn(-c2cccc(C(=O)O)c2)c1-c1ccc(Cl)c(F)c1 [Compound 2] — what was its inhibition rate, Hs-KMO cell-free assay (Figure 1A source data)?
95.022
